Organism: Rattus norvegicus
assay name: Percentage residual insulin secretion at 1 uM dose from pancreatic islets incubated in the presence of 16.7 mM glucose
Type: functional

molecule | Secretion / %
CC(C)C(C)Nc1nc(O)c2cc(Cl)ccc2n1 (centres undefined) | 81.3
CCC(C)Nc1nc(O)c2cc(Cl)ccc2n1 (centres undefined) | 84.9
CC(C)C(C)NC1=NS(=O)(=O)c2cnccc2N1 (centres undefined) | 70.5
CC(N/C(=N\C#N)Nc1ccncc1)C(C)(C)C (centres undefined) [PINACIDIL ANHYDROUS] | 97.8
CC1=Nc2ccc(Cl)cc2S(=O)(=O)N1 [DIAZOXIDE] | 78.9
CC(C)Nc1nc(O)c2cc(Cl)ccc2n1 | 80.7
CC(C)C(C)Nc1nc(O)c2cc(I)ccc2n1 (centres undefined) | 94.7
CCC(C)Nc1nc(O)c2cc(I)ccc2n1 (centres undefined) | 94.9
CC(C)Nc1nc(O)c2cc(I)ccc2n1 | 93.7

====

Species on record: Rattus norvegicus
assay name: Percentage residual insulin secretion at 10 uM dose from pancreatic islets incubated in the presence of 16.7 mM glucose
Type: functional
Returns: string. Value is t if measured Secretion is below 60%, and f if it is greater than or equal to it.

molecule | assigned class
CCC(C)Nc1nc(O)c2cc(Cl)ccc2n1 (centres undefined) | t
CC(N/C(=N\C#N)Nc1ccncc1)C(C)(C)C (centres undefined) [PINACIDIL ANHYDROUS] | f
CC1=Nc2ccc(Cl)cc2S(=O)(=O)N1 [DIAZOXIDE] | f
Oc1nc(NCC2CCCCC2)nc2ccc(Cl)cc12 | f
CC(C)Nc1nc(O)c2cc(Cl)ccc2n1 | t
Oc1nc(NCC2CCCCC2)nc2ccc(I)cc12 | f
CC(C)C(C)Nc1nc(O)c2cc(I)ccc2n1 (centres undefined) | f
CCC(C)Nc1nc(O)c2cc(I)ccc2n1 (centres undefined) | f
CC(C)C(C)Nc1nc(O)c2cc(Cl)ccc2n1 (centres undefined) | f
C[C@H](Nc1nc(O)c2cc(Cl)ccc2n1)C1CCCCC1 | t
CC(C)Nc1nc(O)c2cc(I)ccc2n1 | f
C[C@@H](Nc1nc(O)c2cc(Cl)ccc2n1)C1CCCCC1 | f
CC(C)C(C)NC1=NS(=O)(=O)c2cnccc2N1 (centres undefined) | t
C[C@H](Nc1nc(O)c2cc(Cl)ccc2n1)c1ccccc1 | f

====

Entries and their measured pIC50 follow.
Species on record: Rattus norvegicus
assay name: In vitro inhibition of 30 mM KCl-induced contraction of rat aorta rings.
Type: functional
pIC50: −log10 of the molar value.

compound | pIC50
CC(C)C(C)NC1=NS(=O)(=O)c2cnccc2N1 (stereo not given) | 3.81
C[C@H](Nc1nc(O)c2cc(Cl)ccc2n1)c1ccccc1 | 5.77
C[C@@H](Nc1nc(O)c2cc(Cl)ccc2n1)C1CCCCC1 | 5.25
CC(C)Nc1nc(O)c2cc(I)ccc2n1 | 4.92
CC1=Nc2ccc(Cl)cc2S(=O)(=O)N1 [DIAZOXIDE] | 4.71
Oc1nc(NCc2ccccc2)nc2ccccc12 | 4.36
CC(C)C(C)Nc1nc(O)c2cc(Cl)ccc2n1 (stereo not given) | 4.79
Oc1nc(NCC2CCCCC2)nc2ccc(Cl)cc12 | 5.66
Oc1nc(NCc2ccccc2)nc2ccc(Br)cc12 | 5.12
CCC(C)Nc1nc(O)c2cc(I)ccc2n1 (stereo not given) | 5.05
CC(Nc1nc(O)c2ccccc2n1)C(C)(C)C (stereo not given) | 4.91
C[C@H](Nc1nc(O)c2cc(Cl)ccc2n1)C1CCCCC1 | 5.68
Oc1nc(NCC2CCCCC2)nc2ccc(I)cc12 | 5.41
C[C@@H](Nc1nc(O)c2cc(Cl)ccc2n1)c1ccccc1 | 5.55
CC(N/C(=N\C#N)Nc1ccncc1)C(C)(C)C (stereo not given) [PINACIDIL ANHYDROUS] | 6.30
CC(C)Nc1nc(O)c2cc(Cl)ccc2n1 | 4.76
CC(C)Nc1nc(O)c2ccccc2n1 | 4.17
CC(C)C(C)Nc1nc(O)c2cc(I)ccc2n1 (stereo not given) | 5.39
Oc1nc(NCc2ccccc2)nc2ccc(I)cc12 | 5.85
CCC(C)Nc1nc(O)c2cc(Cl)ccc2n1 (stereo not given) | 4.86

====

Species on record: Rattus norvegicus
assay name: Myorelaxant activity as percentage residual contractile activity in rat uterus at 10 uM concentration.
Format: functional
# strict inequality: Activity < 90% yields 1 (yes), everything else yields 0 (no)

molecule | assigned class
Oc1nc(NCc2ccccc2)nc2ccc(I)cc12 | 0 (no)
CC1=Nc2ccc(Cl)cc2S(=O)(=O)N1 [DIAZOXIDE] | 0 (no)
C[C@H](Nc1nc(O)c2cc(Cl)ccc2n1)C1CCCCC1 | 0 (no)
Oc1nc(NCC2CCCCC2)nc2ccc(Cl)cc12 | 1 (yes)
Oc1nc(NCc2ccccc2)nc2ccc(Br)cc12 | 1 (yes)
Oc1nc(NCC2CCCCC2)nc2ccc(I)cc12 | 0 (no)
C[C@@H](Nc1nc(O)c2cc(Cl)ccc2n1)C1CCCCC1 | 0 (no)
Oc1nc(NCc2ccccc2)nc2ccccc12 | 0 (no)
Oc1nc(NCc2ccccc2)nc2ccc(Cl)cc12 | 0 (no)
CC(C)Nc1nc(O)c2cc(I)ccc2n1 | 1 (yes)
CC(C)Nc1nc(O)c2cc(Cl)ccc2n1 | 1 (yes)
C[C@@H](Nc1nc(O)c2cc(Cl)ccc2n1)c1ccccc1 | 0 (no)
CC(N/C(=N\C#N)Nc1ccncc1)C(C)(C)C (centres undefined) [PINACIDIL ANHYDROUS] | 1 (yes)
